- Test system: H23 cells
- PROCEDURE DETAILS: Cell viability assay (CellTiter-Glo), H23 cells
- Assay type: cell-based
- ASSAY CONTEXT: Homo sapiens, NCI-H23, 72 h; H23 cells, 3 days incubation, CellTiter-Glo luminescence; read-out: Inhibition of Cancerous Cells IC50 H23
pIC50: −log10 of the molar value.
OBSERVED PROPERTY: pIC50

* COc1cc2c(N[C@H](C)c3cccc(Br)c3)nc(C)nc2cc1OCCCCCCCNCc1ccc(OCc2scc3c2CN(C2CCC(=O)NC2=O)C3=O)cc1 (some centres unmarked) [Compound A41] | 5.89
* COc1cc2c(N[C@@H](C)c3cccs3)nc(C)nc2cc1OCCCCCCCCC(=O)N[C@H](C(=O)N1C[C@H](O)C[C@H]1C(=O)NCc1ccc(-c2scnc2C)cc1)C(C)(C)C [Compound D6] | 5.57
* COc1cc2c(N[C@H](C)c3cccc(Br)c3)nc(C)nc2cc1OCCOCCOCCNc1cccc2c1C(=O)N(C1CCC(=O)NC1=O)C2=O (some centres unmarked) [Compound A36] | 5.08
* CNCc1ccccc1-c1csc([C@@H](C)Nc2nc(C)nc3cc(OC)c(OC)cc23)c1 [reference compound] | 5.82
* COc1cc2nc(C)nc(N[C@H](C)c3cccc(Br)c3)c2cc1OCCCCCCCN1CCC(c2cc(F)cc3c2CN(C2CCC(=O)NC2=O)C3=O)CC1 (some centres unmarked) [Compound A19] | 5.72
* CNCc1ccccc1-c1csc([C@H](C)Nc2nc(C)nc3cc(OC)c(OC)cc23)c1 [reference compound] | 5.64
* COc1cc2nc(C)nc(N[C@H](C)c3cccc(Br)c3)c2cc1OC [drawing 284, reference compound] | 5.32
* CNCc1ccccc1-c1csc([C@H](C)Nc2nc(C)nc3cc(OCCCCCCCCC(=O)N[C@H](C(=O)N4C[C@H](O)C[C@H]4C(=O)NCc4ccc(-c5scnc5C)cc4)C(C)(C)C)c(OC)cc23)c1 [Compound D10] | 6.03
* COc1cc2c(N[C@H](C)c3cccc(Br)c3)nc(C)nc2cc1OCCCCCCCN1CCC(c2cc3c(cc2F)C(=O)N(C2CCC(=O)NC2=O)C3)CC1 (some centres unmarked) [Compound A22] | 6.05

###

// reported pIC50 per item
- System: H23 cells
- PROCEDURE DETAILS: Cell viability assay (CellTiter-Glo), H23 cells
- Type: cell-based
- ASSAY CONTEXT: Homo sapiens, NCI-H23, 72 h; H23 cells, 3 days incubation, CellTiter-Glo luminescence; read-out: Inhibition of Cancerous Cells IC50 H23
pIC50: −log10 of the molar value.
OBSERVED PROPERTY: pIC50

• COc1cc2c(N[C@H](C)c3cccc(Br)c3)nc(C)nc2cc1OCCOCCOCCOCCNc1cccc2c1C(=O)N(C1CCC(=O)NC1=O)C2=O (some centres unmarked) [Compound A4] = 5.05
• COc1cc2c(N[C@H](C)c3cccc(Br)c3)nc(C)nc2cc1OCCCCCCCCC(=O)N[C@H](C(=O)N1C[C@H](O)C[C@H]1C(=O)NCc1ccc(-c2scnc2C)cc1)C(C)(C)C [Compound D2] = 4.89
• CNCc1ccccc1-c1csc([C@@H](C)Nc2nc(C)nc3cc(OCCCCCCCCC(=O)N[C@H](C(=O)N4C[C@H](O)C[C@H]4C(=O)NCc4ccc(-c5scnc5C)cc4)C(C)(C)C)c(OC)cc23)c1 [Compound D9] = 6.00
• COc1cc2c(N[C@H](C)c3cccc(Br)c3)nc(C)nc2cc1OCCCCCCCCCN1CCC(c2cc(F)cc3c2CN(C2CCC(=O)NC2=O)C3=O)CC1 (some centres unmarked) [Compound A12] = 5.92
• COc1cc2c(N[C@H](C)c3cccc(Br)c3)nc(C)nc2cc1OC1CCN(CCCCN2CCC(c3cc(F)cc4c3CN(C3CCC(=O)NC3=O)C4=O)CC2)CC1 (some centres unmarked) [Compound A18] = 5.59
